- PROCEDURE_TEXT: Bioavailability in mouse at 10 mg/kg, po or 1 mg/kg, iv
- Type: ADME, organism-based
- STATED_CONDITIONS: in vivo
MEASURE: bioavailability (%)
Use % as the unit, but write only the number.

INSERT INTO measurements (molecular_string, measure, result) VALUES
  ('CC(C)n1nnnc1[C@@H](c1ccccc1F)N1CCN(c2cccc(Cl)c2)CC1', 'bioavailability', 12.4);

Next, consider the following compound.
Req: Query (compound): `CC(C)n1nnnc1[C@H](c1ccccc1F)N1CCN(c2cccc(Cl)c2)CC1` ; field requested: bioavailability
Resp: 3.45

* * *

The following compounds are shown together with reported clearance values.
- PROCEDURE_TEXT: Stability in mouse assessed as intrinsic clearance
- Assay type: ADME, cell-based, Hepatocyte
- STATED_CONDITIONS: hepatocytes
Use mL/min/kg as the unit, but write only the number.

INSERT INTO assay_data (molecular_string, measure, result) VALUES
  ('CC(C)n1nnnc1[C@H](c1ccccc1F)N1CCN(c2cccc(Cl)c2)CC1', 'clearance', 209);

Next, consider the following compound.
Req: Query (compound): `CC(C)n1nnnc1[C@@H](c1ccccc1F)N1CCN(c2cccc(Cl)c2)CC1` ; field requested: clearance
Resp: 170

* * *

- PROCEDURE_TEXT: Stability in dog assessed as intrinsic clearance
- Type: ADME, cell-based, Canis lupus familiaris, Hepatocyte
- STATED_CONDITIONS: hepatocytes
MEASURE: clearance (mL/min/kg)
Use mL/min/kg as the unit, but write only the number.

INSERT INTO measurements (molecular_string, result) VALUES
  ('CC(C)n1nnnc1[C@H](c1ccccc1F)N1CCN(c2cccc(Cl)c2)CC1', 103);

Req: Query (compound): `CC(C)n1nnnc1[C@@H](c1ccccc1F)N1CCN(c2cccc(Cl)c2)CC1` ; field requested: clearance
Resp: 83.7

* * *

- PROCEDURE_TEXT: Half life in mouse at 1 mg/kg, IV
- Assay type: ADME, organism-based
- STATED_CONDITIONS: in vivo
The following compounds are shown together with reported half-life values.

INSERT INTO results (molecular_string, measure, result) VALUES
  ('CC(C)n1nnnc1[C@H](c1ccccc1F)N1CCN(c2cccc(Cl)c2)CC1', 'half-life', '1.91 h');

Req: Query (compound): `CC(C)n1nnnc1[C@@H](c1ccccc1F)N1CCN(c2cccc(Cl)c2)CC1` ; field requested: half-life
Resp: 2.19 h

* * *

- PROCEDURE_TEXT: Apparent permeability across apical to basolateral side in MDCK-MDR1 cells
- Type: ADME, cell-based, Canis lupus familiaris
- STATED_CONDITIONS: dog
MEASURE: Papp A→B (×10⁻⁶ cm/s)
Use ×10⁻⁶ cm/s as the unit, but write only the number.

INSERT INTO measurements (molecular_string, measure, result) VALUES
  ('CC(C)n1nnnc1[C@H](c1ccccc1F)N1CCN(c2cccc(Cl)c2)CC1', 'Papp A→B', 10.7);

Next, consider the following molecule.
Req: Query (molecule): `CC(C)n1nnnc1[C@@H](c1ccccc1F)N1CCN(c2cccc(Cl)c2)CC1` ; field requested: Papp A→B
Resp: 9.9

* * *

- PROCEDURE_TEXT: Half life in mouse at 10 mg/kg, PO
- Assay type: ADME, organism-based
- STATED_CONDITIONS: in vivo
MEASURE: half-life (min)
Use min as the unit, but write only the number.

Req: Query (compound): `CC(C)n1nnnc1[C@@H](c1ccccc1F)N1CCN(c2cccc(Cl)c2)CC1` ; field requested: half-life
Resp: 104
